- Test system: S. aureus ATCC 6538
- experimental_context: CFU assay, 10 mM NaP, pH 5.5, 0.25% glucose
Square brackets hold non-standard residues; d marks the D form. Peptide text beside a SMILES is read from it. * marks the point of attachment. Palmitoyl = CCCCCCCCCCCCCCCC(=O)*; dOrn = NCCC[C@@H](N)C(=O)O; Dap = NC[C@H](N)C(=O)O
property_measured: LD90 (µg/mL)
One number for each entry, in µg/mL.

Here are 3 molecules together with their reported answers.
[
  {
    "molecule": "CCCCCCCCCCCCCCCC(=O)NCC(=O)N[C@H](CCCN)C(=O)NCC(=O)N[C@H](CCCN)C(=O)O [Pal-(D)-GO4] (Palmitoyl-G[dOrn]G[dOrn]-OH; C-terminus assumed)",
    "readout_unit": "µg/mL",
    "LD90": 9.38
  },
  {
    "molecule": "CCCCCCCCCCCCCCCC(=O)NCC(=O)N[C@@H](Cc1c[nH]cn1)C(=O)N[C@@H](Cc1c[nH]cn1)C(=O)NCC(=O)NCC(=O)N[C@@H](Cc1c[nH]cn1)C(=O)NCC(=O)NCC(=O)N[C@@H](Cc1c[nH]cn1)C(=O)NCC(=O)N[C@@H](Cc1c[nH]cn1)C(=O)NCC(=O)N[C@@H](Cc1c[nH]cn1)C(=O)O [Pal-GH13] (Palmitoyl-GHHGGHGGHGHGH-OH; C-terminus assumed)",
    "readout_unit": "µg/mL",
    "LD90": 0.3
  },
  {
    "molecule": "CCCCCCCCCCCCCCCC(=O)NCC(=O)N[C@@H](CN)C(=O)NCC(=O)N[C@@H](CN)C(=O)O [Pal-G-Dap4] (Palmitoyl-G[Dap]G[Dap]-OH)",
    "readout_unit": "µg/mL",
    "LD90": 2.35
  }
]

Value sought for every listed molecule: LD90.
1. CCCCCCCCCCCCCCCC(=O)NCC(=O)N[C@@H](CCCNC(=N)N)C(=O)N[C@@H](CCCNC(=N)N)C(=O)NCC(=O)N[C@@H](CO)C(=O)NCC(=O)N[C@@H](CC(C)C)C(=O)NCC(=O)N[C@@H](CCCNC(=N)N)C(=O)N[C@@H](CO)C(=O)N[C@@H](CO)C(=O)N[C@@H](CO)C(=O)N[C@@H](CCCNC(=N)N)C(=O)O [Pal-HR 1-18-3H3R-GR13] (Palmitoyl-GRRGSGLGRSSSR-OH)
2. CCCCCCCCCCCCCCCC(=O)NCC(=O)N[C@@H](CCCCN)C(=O)N[C@@H](CCCCN)C(=O)NCC(=O)NCC(=O)N[C@@H](CCCCN)C(=O)NCC(=O)NCC(=O)N[C@@H](CCCCN)C(=O)NCC(=O)N[C@@H](CCCCN)C(=O)NCC(=O)N[C@@H](CCCCN)C(=O)O [Pal-K-GR13] (Palmitoyl-GKKGGKGGKGKGK-OH; C-terminus assumed)

1: 2.35; 2: 0.59

* * *

- Test system: Candida albicans ATCC 90028
- method_description: CO-ADD MIC, antifungal assay (CLSI)
- Format: cell-based
- experimental_context: Yeast Nitrogen Base broth, 24 h 35 °C, by CO-ADD
Square brackets hold non-standard residues; d marks the D form. Peptide text beside a SMILES is read from it. * marks the point of attachment. Palmitoyl = CCCCCCCCCCCCCCCC(=O)*; Dap = NC[C@H](N)C(=O)O
Please respond with reported Minimal inhibitory concentration (MIC) for every item in the list.
Give bare numbers, in µg/mL.

[
  {
    "compound": "CCCCCCCCCCCCCCCC(=O)N[C@@H](CO)C(=O)N[C@@H](Cc1c[nH]cn1)C(=O)N[C@@H](Cc1c[nH]cn1)C(=O)N[C@@H](CCCNC(=N)N)C(=O)N[C@@H](CS)C(=O)N[C@@H](CS)C(=O)N[C@@H](CCCNC(=N)N)C(=O)N[C@@H](CO)C(=O)N[C@@H](Cc1c[nH]cn1)C(=O)N[C@@H](CCCNC(=N)N)C(=O)N[C@@H](CS)C(=O)N[C@@H](CCCNC(=N)N)C(=O)N[C@@H](CCCNC(=N)N)C(=O)O [Pal-LCE-3B56–68] (Palmitoyl-SHHRCCRSHRCRR-OH)",
    "system_under_test": "Candida albicans ATCC 90028",
    "readout_unit": "µg/mL",
    "quantitative_result": 1
  },
  {
    "compound": "CCCCCCCCCCCCCCCC(=O)N[C@@H](CO)C(=O)N[C@@H](Cc1c[nH]cn1)C(=O)N[C@@H](Cc1c[nH]cn1)C(=O)N[C@@H](CCCNC(=N)N)C(=O)N[C@@H](Cc1c[nH]cn1)C(=O)N[C@@H](Cc1ccccc1)C(=O)N[C@@H](CCCNC(=N)N)C(=O)N[C@@H](CO)C(=O)N[C@@H](Cc1c[nH]cn1)C(=O)N[C@@H](CCC(N)=O)C(=O)N[C@@H](CS)C(=O)N[C@@H](CCCNC(=N)N)C(=O)N[C@@H](CCCNC(=N)N)C(=O)O [Pal-LCE-3C55-67] (Palmitoyl-SHHRHFRSHQCRR-OH)",
    "system_under_test": "Candida albicans ATCC 90028",
    "readout_unit": "µg/mL",
    "quantitative_result": 16
  },
  {
    "compound": "CCCCCCCCCCCCCCCC(=O)NCC(=O)N[C@@H](CN)C(=O)NCC(=O)N[C@@H](CN)C(=O)O [Pal-G-Dap4] (Palmitoyl-G[Dap]G[Dap]-OH)",
    "system_under_test": "Candida albicans ATCC 90028",
    "readout_unit": "µg/mL",
    "quantitative_result": 8
  }
]

Value sought for every listed compound: Minimal inhibitory concentration (MIC).
1. CCCCCCCCCCCCCCCC(=O)NCC(=O)N[C@H](CCCNC(=N)N)C(=O)N[C@H](CCCNC(=N)N)C(=O)NCC(=O)NCC(=O)N[C@H](CCCNC(=N)N)C(=O)NCC(=O)NCC(=O)N[C@H](CCCNC(=N)N)C(=O)NCC(=O)N[C@H](CCCNC(=N)N)C(=O)NCC(=O)N[C@H](CCCNC(=N)N)C(=O)O [(D)-Pal-GR13] (Palmitoyl-G[dR][dR]GG[dR]GG[dR]G[dR]G[dR]-OH; C-terminus assumed)
2. CCCCCCCCCCCCCCCC(=O)NCC(=O)N[C@@H](CCCNC(=N)N)C(=O)N[C@@H](CCCNC(=N)N)C(=O)NCC(=O)NCC(=O)N[C@@H](CCCNC(=N)N)C(=O)NCC(=O)NCC(=O)N[C@@H](CCCNC(=N)N)C(=O)NCC(=O)N[C@@H](CCCNC(=N)N)C(=O)NCC(=O)N[C@@H](CCCNC(=N)N)C(=O)O [Pal-GR13] (Palmitoyl-GRRGGRGGRGRGR-OH)
3. CCCCCCCCCCCCCCCC(=O)NCC(=O)N[C@@H](CCCNC(=N)N)C(=O)NCC(=O)N[C@@H](CCCNC(=N)N)C(=O)O [Pal-GR4] (Palmitoyl-GRGR-OH)
4. CCCCCCCCCCCCCCCC(=O)NCC(=O)N[C@@H](CCCNC(=N)N)C(=O)N[C@@H](CCCNC(=N)N)C(=O)NCC(=O)NCC(=O)N[C@@H](CCCNC(=N)N)C(=O)NCC(=O)NCC(=O)N[C@@H](CCCNC(=N)N)C(=O)NCC(=O)N[C@@H](CCCNC(=N)N)C(=O)O [Pal-GR11] (Palmitoyl-GRRGGRGGRGR-OH)

1: 8; 2: 4; 3: 8; 4: 4

* * *

- System: Cryptococcus neoformans ATCC 208821
- method_description: CO-ADD MIC, antifungal assay (CLSI)
- Format: cell-based
- experimental_context: Yeast Nitrogen Base broth, 24 h 35 °C, by CO-ADD
Ends that are not written are not given here.
property_measured: Minimal inhibitory concentration (MIC)

[
  {
    "primary_sequence": "SHHRHFRSHQCRR [LCE-3C55-67]",
    "Minimal inhibitory concentration (MIC)": "8 µg/mL"
  }
]

Value sought for every listed sequence: Minimal inhibitory concentration (MIC).
1. GRRGGRGGRGRGR [GR13]
2. GRRGSGLGRSSSRGGRGSGSGR [HR 1-18,4H-4R, HR1-18 variant]
3. HAHSGHGQSTQRGSRTAGR [FLG-22082-2100]
4. GRHGSGLGHSSSHGQHGSGSGR [HR 1-18]

[">32 µg/mL", ">32 µg/mL", ">32 µg/mL", ">32 µg/mL"]

* * *

- Tested on: Acinetobacter baumannii ATCC 19606
- method_description: CO-ADD MIC, broth microdilution (CLSI)
- Assay type: cell-based
- experimental_context: Mueller–Hinton broth, 5 × 10^5 CFU/mL, 18 h 37 °C, by CO-ADD
Peptide text beside a SMILES is read from it. * marks the point of attachment. Palmitoyl = CCCCCCCCCCCCCCCC(=O)*
Please respond with reported Minimal inhibitory concentration (MIC) for every item in the list.
Give bare numbers, in µg/mL.

[
  {
    "compound": "CCCCCCCCCCCCCCCC(=O)N[C@@H](CCCNC(=N)N)C(=O)NCC(=O)N[C@@H](CO)C(=O)N[C@@H](CCCNC(=N)N)C(=O)N[C@@H](CO)C(=O)NCC(=O)N[C@@H](CCC(N)=O)C(=O)N[C@@H](CO)C(=O)N[C@@H](CO)C(=O)N[C@@H](CCCNC(=N)N)C(=O)NCC(=O)N[C@@H](CCC(=O)O)C(=O)N[C@@H](CCCNC(=N)N)C(=O)N[C@@H](CCCNC(=N)N)C(=O)O [Pal-HR-1-11-2H2R-14] (Palmitoyl-RGSRSGQSSRGERR-OH)",
    "property_measured": "Minimal inhibitory concentration (MIC)",
    "quantitative_result": 4
  }
]

Value sought for every listed compound: Minimal inhibitory concentration (MIC).
1. CCCCCCCCCCCCCCCC(=O)NCC(=O)N[C@@H](CCCNC(=N)N)C(=O)N[C@@H](CCCNC(=N)N)C(=O)NCC(=O)NCC(=O)N[C@@H](CCCNC(=N)N)C(=O)NCC(=O)NCC(=O)N[C@@H](CCCNC(=N)N)C(=O)NCC(=O)N[C@@H](CCCNC(=N)N)C(=O)O [Pal-GR11] (Palmitoyl-GRRGGRGGRGR-OH)
2. CCCCCCCCCCCCCCCC(=O)NCC(=O)N[C@@H](CCCNC(=N)N)C(=O)N[C@@H](CCCNC(=N)N)C(=O)NCC(=O)NCC(=O)N[C@@H](CCCNC(=N)N)C(=O)NCC(=O)NCC(=O)N[C@@H](CCCNC(=N)N)C(=O)NCC(=O)N[C@@H](CCCNC(=N)N)C(=O)NCC(=O)N[C@@H](CCCNC(=N)N)C(=O)O [Pal-GR13] (Palmitoyl-GRRGGRGGRGRGR-OH)

1. 8
2. 2

Hello, the source for this data is paper PMC6399351, in case you need it.
